Values from ChEMBL document CHEMBL1134724

Assay: Selectivity ratio as antilogarithm of smallest difference between the pKi value at 5-HT6 receptor and range of comparator receptors
endpointLabel: Selectivity ratio

P. Cc1sc2ccc(Cl)cc2c1S(=O)(=O)Nc1ccc2nccc(N3CCNCC3)c2c1
Q. O=S(=O)(Nc1ccc2nccc(N3CCNCC3)c2c1)c1ccc2c(Cl)cccc2c1
R. Cc1c(S(=O)(=O)Nc2ccc3nccc(N4CCNCC4)c3c2)sc2c(Cl)cc(Cl)cc12
[Q] In ascending order of recorded Selectivity ratio, list the compounds from the set above. Answer format: list of labels, ordered as asked.
[A] R, Q, P

###

Molecular target: UniProtKB P34969
Sequence (P34969 whole entry): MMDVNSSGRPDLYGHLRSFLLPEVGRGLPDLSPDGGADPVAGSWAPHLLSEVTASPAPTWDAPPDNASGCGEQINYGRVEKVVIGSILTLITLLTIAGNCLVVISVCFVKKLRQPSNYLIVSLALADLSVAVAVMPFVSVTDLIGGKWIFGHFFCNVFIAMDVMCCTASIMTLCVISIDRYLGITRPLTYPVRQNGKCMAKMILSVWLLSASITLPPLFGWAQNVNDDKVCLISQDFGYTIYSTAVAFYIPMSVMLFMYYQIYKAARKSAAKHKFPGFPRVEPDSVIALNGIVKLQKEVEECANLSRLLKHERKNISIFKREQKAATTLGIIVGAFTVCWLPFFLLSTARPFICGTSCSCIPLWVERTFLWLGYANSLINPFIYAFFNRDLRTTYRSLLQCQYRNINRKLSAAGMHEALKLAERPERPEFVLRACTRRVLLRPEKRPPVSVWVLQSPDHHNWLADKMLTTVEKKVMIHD
Assay: Binding affinity to human cloned 5-hydroxytryptamine 7 receptor in HEK 293 cells using [3H]-5-CT as radioligand
Measured Ki by item

Please review the following examples before continuing.
Cc1sc2ccc(Cl)cc2c1S(=O)(=O)Nc1ccc2nccc(N3CCNCC3)c2c1	1.58 µM
O=S(=O)(Nc1ccc2nccc(N3CCNCC3)c2c1)c1ccc2c(Cl)cccc2c1	2.51 µM
Cc1c(S(=O)(=O)Nc2ccc3nccc(N4CCNCC4)c3c2)sc2ccc(Cl)cc12	> 7.94 µM
O=S(=O)(Nc1ccc2nccc(N3CCNCC3)c2c1)c1ccc(-c2ccccc2)cc1	> 10 µM
Cc1c(S(=O)(=O)Nc2ccc3nccc(N4CCN(C)CC4)c3c2)sc2ccc(Cl)cc12	2 µM

[Q] What value of Ki has been reported for the following compound? Cc1c(S(=O)(=O)Nc2ccc3nccc(N4CCN[C@@H](C)C4)c3c2)sc2ccc(Cl)cc12
[A] > 5.01 µM

[Q] Can you share its Ki? I mean this compound: CCc1c(S(=O)(=O)Nc2ccc3nccc(N4CCNCC4)c3c2)sc2ccc(Cl)cc12
[A] > 5.01 µM

[Q] # get_value(readout='Ki', item= Cc1cc(N2CCNCC2)c2cc(NS(=O)(=O)c3sc4ccc(Cl)cc4c3C)ccc2n1 )
[A] > 5.01 µM

[Q] Dear colleague, I am looking for the recorded Ki of the following compound: CC(C)(C)c1ccc(S(=O)(=O)Nc2ccc3nccc(N4CCNCC4)c3c2)cc1
[A] > 10 µM
